Reported pKd values for the following binders.
ASSAYED_SYSTEM: T1, recombinant mouse sclerostin (mouse, UniProt Q99P68 24-211)
T1 construct: also called ms sclerostin; murine sclerostin
T1 sequence (looked up): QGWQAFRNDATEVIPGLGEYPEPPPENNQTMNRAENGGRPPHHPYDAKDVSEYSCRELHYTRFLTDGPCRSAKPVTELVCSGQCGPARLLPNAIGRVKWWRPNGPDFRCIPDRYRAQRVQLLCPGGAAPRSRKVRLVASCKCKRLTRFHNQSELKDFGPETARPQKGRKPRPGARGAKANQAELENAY
PROTOCOL_SUMMARY: SPR
In textbook form, pKd equals minus log to base ten of the concentration in mol/L.

Reference set (2 entries):
>  <BINDER>
AE10-6-AM3 (antibody, V domains shown, converted into IgG) VH: EVQLVQSGAEVKKPGASVKVSCKVSGYTLTELSMHWVRQAPGKGLEWMGGFDPEDGETIYAQKFQGRVTMTEDTSTDTAYMELSSLRSEDTAVYYCATDSAGYWYKFFQHWGQGTLVTVSS VL: QAVVTQEPSLTVSPGGTVTLTCGSSTGAVTIDHYPYWFQQKPGQAPRTLISDTDDKHSWTPARFSGSLLGGKAALTLSGAQPEDEAEYYCLLDYGGTFVFGGGTKLTVL

>  <VALUE_MEASURED>
11.26

$$$$
>  <BINDER>
AE10-6-AM7 (antibody, V domains shown, converted into IgG; also called rHC + LC S4 clone 131) VH: EVQLVQSGAEVKKPGASVKVSCKVSGYTLTELSMHWVRQAPGKGLEWMGGFDPEDGETIYAQKFQGRVTMTEDTSTDTAYMELSSLRSEDTAVYYCATDTVGYWEKFFQHWGQGTLVTVSS VL: QAVVTQEPSLTVSPGGTVTLTCGSSTGTVTIDHYPYWFQQKPGQAPRTLISDTDDKHSWTPARFSGSLLGGKAALTLSGAQPEDEAEYYCLLDYGGRFVFGGGTKLTVL

>  <VALUE_MEASURED>
11.03

$$$$

### Prompt Dear colleague, I am looking for the recorded pKd of the following binder: AE10-6-AM8 (antibody, V domains shown, converted into IgG) VH: EVQLVQSGAEVKKPGASVKVSCKVSGYTLSELSIHWVRQAPGKGLEWMGGFDPEDGETIYAQKFQGRVTMTEDTSTDTAYMELSSLRSEDTAVYYCATDSAGYWYKFFQHWGQGTLVTVSS VL: QAVVTQEPSLTVSPGGTVTLTCGSSTGAVTIDHYPYWFQQKPGQAPRTLISDTDDKHSWTPARFSGSLLGGKAALTLSGAQPEDEAEYYCLLDYGGSFVFGGGTKLTVL
### Response 11.13
